Would you mind telling me the reported remaining activity at 30 µM of each entry?
System Name: GluN1/GluN2B (Rattus norvegicus, UniProt P35439+Q00960)
Construct: GluN2B (NM_012574.1), GluN2C (NM_012575.3), and GluN2D (NM_022797.2) were provided by; expressed in transfected cells; host or cells: Xenopus laevis oocytes (cRNA injection)
Sequence (Q00960 27-1482, other chains not shown): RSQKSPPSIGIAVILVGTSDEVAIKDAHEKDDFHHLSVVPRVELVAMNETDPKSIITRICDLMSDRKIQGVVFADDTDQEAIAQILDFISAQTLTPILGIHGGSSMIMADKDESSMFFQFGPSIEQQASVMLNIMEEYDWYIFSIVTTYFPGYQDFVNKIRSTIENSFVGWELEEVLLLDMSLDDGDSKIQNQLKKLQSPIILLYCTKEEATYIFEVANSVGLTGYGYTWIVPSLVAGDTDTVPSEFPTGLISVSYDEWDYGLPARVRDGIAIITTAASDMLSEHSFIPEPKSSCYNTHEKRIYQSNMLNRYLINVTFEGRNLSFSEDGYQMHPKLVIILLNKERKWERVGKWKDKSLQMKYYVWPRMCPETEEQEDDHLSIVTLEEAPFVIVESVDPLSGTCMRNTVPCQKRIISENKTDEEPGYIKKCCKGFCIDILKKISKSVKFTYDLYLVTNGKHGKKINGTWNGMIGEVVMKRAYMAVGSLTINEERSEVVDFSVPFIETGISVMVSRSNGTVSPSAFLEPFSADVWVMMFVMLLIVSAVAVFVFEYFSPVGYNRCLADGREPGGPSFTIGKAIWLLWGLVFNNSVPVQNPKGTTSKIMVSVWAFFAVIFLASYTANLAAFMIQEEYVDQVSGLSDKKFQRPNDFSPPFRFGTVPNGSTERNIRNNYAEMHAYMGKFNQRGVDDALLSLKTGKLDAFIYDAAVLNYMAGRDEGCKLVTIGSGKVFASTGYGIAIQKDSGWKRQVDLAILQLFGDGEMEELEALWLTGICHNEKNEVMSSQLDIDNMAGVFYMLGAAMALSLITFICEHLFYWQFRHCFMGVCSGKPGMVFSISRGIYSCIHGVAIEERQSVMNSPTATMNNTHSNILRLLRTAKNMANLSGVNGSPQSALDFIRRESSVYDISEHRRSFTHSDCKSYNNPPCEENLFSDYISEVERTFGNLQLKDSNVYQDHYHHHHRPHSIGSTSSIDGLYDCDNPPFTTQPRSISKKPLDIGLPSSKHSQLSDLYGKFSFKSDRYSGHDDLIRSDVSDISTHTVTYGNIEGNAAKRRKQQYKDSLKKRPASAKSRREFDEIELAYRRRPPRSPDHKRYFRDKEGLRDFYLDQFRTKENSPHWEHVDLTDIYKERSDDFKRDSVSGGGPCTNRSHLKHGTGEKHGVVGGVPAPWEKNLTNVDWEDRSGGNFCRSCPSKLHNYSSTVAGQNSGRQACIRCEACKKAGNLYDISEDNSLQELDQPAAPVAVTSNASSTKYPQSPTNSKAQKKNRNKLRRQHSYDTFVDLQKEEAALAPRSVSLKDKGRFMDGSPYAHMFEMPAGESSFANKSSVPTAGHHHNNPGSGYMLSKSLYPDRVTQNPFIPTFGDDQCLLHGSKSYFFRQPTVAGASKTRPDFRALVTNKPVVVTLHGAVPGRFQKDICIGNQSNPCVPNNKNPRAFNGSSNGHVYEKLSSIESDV
Test Description: Two-electrode voltage-clamp recordings, Xenopus laevis oocytes, GluN1/GluN2B
Type: cell-based
Assay Setup: 30 μM test compound; 100 μM glutamate, 30 μM glycine; mean ± SEM; read-out: I 30 μM / I control GluN2B
I only need the number, in %, no unit after it.

Find the measured remaining activity at 30 µM of N#CCCC(=O)N1N=C(c2c(-c3ccc(Cl)cc3)c3ccccc3[nH]c2=O)CC1c1ccc(Cl)cc1 (stereo not drawn) and report it. 82

Determine its reported remaining activity at 30 µM: CCOC(=O)CC(F)(F)C(=O)N1N=C(c2c(-c3ccc(Cl)cc3)c3ccccc3[nH]c2=O)CC1c1ccc(Cl)cc1 (stereo not drawn) 97

Look up remaining activity at 30 µM of O=C(CC(F)(F)C(=O)N1N=C(c2c(-c3ccc(Cl)cc3)c3ccccc3[nH]c2=O)CC1c1ccc(Cl)cc1)OCc1ccccc1 (stereo not drawn) and report it. 103

Return remaining activity at 30 µM (reported value) for this molecule: N[C@@H](CCC(=O)N1N=C(c2c(-c3ccc(Cl)cc3)c3ccccc3[nH]c2=O)CC1c1ccc(Cl)cc1)C(=O)O (stereo partly drawn) 48

Indicate its recorded remaining activity at 30 µM; the molecule in question is CC(C)OC(=O)CC(F)(F)C(=O)N1N=C(c2c(-c3ccc(Cl)cc3)c3ccccc3[nH]c2=O)CC1c1ccc(Cl)cc1 (stereo not drawn) 88

Please supply the value of reported remaining activity at 30 µM for the item O=C(N1N=C(c2c(-c3ccc(Cl)cc3)c3ccccc3[nH]c2=O)CC1c1ccc(Cl)cc1)C(F)(F)F (stereo not drawn) 86

Look up and state reported remaining activity at 30 µM for O=C(O)CCCC(=O)N1N=C(c2c(-c3ccc(Cl)cc3)c3ccccc3[nH]c2=O)CC1c1ccc(Cl)cc1 (stereo not drawn) 57

Please supply the value of reported remaining activity at 30 µM for the item O=C(CCc1nnn[nH]1)N1N=C(c2c(-c3ccc(Cl)cc3)c3ccccc3[nH]c2=O)CC1c1ccc(Cl)cc1 (stereo not drawn) 48

Given O=C(CC(F)(F)C(=O)N1N=C(c2c(-c3ccc(Cl)cc3)c3ccccc3[nH]c2=O)CC1c1ccc(Cl)cc1)OCC1CC1 (stereo not drawn) , respond with its remaining activity at 30 µM. 92

====

Would you mind telling me the reported half-life at 3 μM of each entry?
Test Description: Liver microsome stability, mouse
Format: in vitro ADME
Assay Setup: CD-1, mouse, liver microsomes, incubation up to 30 min; 3 μM; read-out: liver microsome stability T1/2, mouse

Quote half-life at 3 μM reported for NC(=O)CC(F)(F)C(=O)N1N=C(c2c(-c3ccc(Cl)cc3)c3ccccc3[nH]c2=O)CC1c1ccc(Cl)cc1 (stereo not drawn) [2k] please. > 30 min

Return the recorded half-life at 3 μM value; entry: CCOC(=O)CC(F)(F)C(=O)N1N=C(c2c(-c3ccc(Cl)cc3)c3ccccc3[nH]c2=O)CC1c1ccc(Cl)cc1 (stereo not drawn) [2l] 2.6 min

# return recorded half-life at 3 μM for entry CC(C)(C)COC(=O)CC(F)(F)C(=O)N1N=C(c2c(-c3ccc(Cl)cc3)c3ccccc3[nH]c2=O)CC1c1ccc(Cl)cc1 (stereo not drawn) [2o] 4 min

Give me measured half-life at 3 μM, please, for this compound: O=C(O)CC(F)(F)C(=O)N1N=C(c2c(-c3ccc(Cl)cc3)c3ccccc3[nH]c2=O)CC1c1ccc(Cl)cc1 (stereo not drawn) [2i] > 30 min

Indicate its recorded half-life at 3 μM; the compound in question is CNC(=O)CC(F)(F)C(=O)N1N=C(c2c(-c3ccc(Cl)cc3)c3ccccc3[nH]c2=O)CC1c1ccc(Cl)cc1 (stereo not drawn) [2q] ≤ 7 min

Specify reported half-life at 3 μM for the compound shown: O=C(CC(F)(F)C(=O)N1N=C(c2c(-c3ccc(Cl)cc3)c3ccccc3[nH]c2=O)CC1c1ccc(Cl)cc1)OCC1CC1 (stereo not drawn) [2n] 1.8 min

Please look at this compound and report its half-life at 3 μM: O=C(CC(F)(F)C(=O)N1N=C(c2c(-c3ccc(Cl)cc3)c3ccccc3[nH]c2=O)CC1c1ccc(Cl)cc1)OCc1ccccc1 (stereo not drawn) [2p] 7.2 min

Give half-life at 3 μM for O=C(O)CCC(=O)N1N=C(c2c(-c3ccc(Cl)cc3)c3ccccc3[nH]c2=O)CC1c1ccc(Cl)cc1 (stereo not drawn) [2a] > 30 min

Identify half-life at 3 μM associated with the compound CC(C)OC(=O)CC(F)(F)C(=O)N1N=C(c2c(-c3ccc(Cl)cc3)c3ccccc3[nH]c2=O)CC1c1ccc(Cl)cc1 (stereo not drawn) [2m] 2.9 min

====

Test Description: Mouse plasma and brain pharmacokinetics, IP administration
Format: in vivo
Assay Setup: male, C57BL/6, mouse, brain/plasma, ip, 10 mg/kg, 10 mg/kg IP; 0.25 h; read-out: Brain/plasma Ratio, Mean
Experimental: IACUC-approved protocols and animal welfare regulations outlined in the “Guide for the Care and Use of Laboratory Animals” were both followed during the pharmacokinetic evaluation of all compounds. In vivo analysis was performed by Pharmaron (IP administration, Irvine, CA) and Sai Life (IV administration, Hinjewadi Pune, Pune, India). A group (n = 15) of fed, male C57BL/6 mice ∼6 to 8 weeks of age was injected IP with 10 mg/kg (1 mg/mL) of drug using 50% PEG400 in water as a vehicle. […]
Assay Metric: Kp at 0.25 h
A bare number is all that is needed in reply.

Specify Kp at 0.25 h for O=C(O)CC(F)(F)C(=O)N1N=C(c2c(-c3ccc(Cl)cc3)c3ccccc3[nH]c2=O)CC1c1ccc(Cl)cc1 (stereo not shown) and stop. 0.014

====

Test Description: Mouse plasma and brain pharmacokinetics, IP administration
Type: in vivo
Assay Setup: male, C57BL/6, mouse, brain, intraperitoneal, 10 mg/kg, 10 mg/kg IP; 0.25 h; read-out: brain calculated concentration, Mean
Assay Metric: concentration at 0.25 h (ng/g)
Give the number; ng/g is assumed, so skip it.

State, in one line, measured concentration at 0.25 h of O=C(O)CC(F)(F)C(=O)N1N=C(c2c(-c3ccc(Cl)cc3)c3ccccc3[nH]c2=O)CC1c1ccc(Cl)cc1 (stereo not shown) [2i] 17.5

====

System Name: GluN1/GluN2D (Rattus norvegicus, UniProt P35439+Q62645)
Sequence (Q62645 28-1323, other chains not shown): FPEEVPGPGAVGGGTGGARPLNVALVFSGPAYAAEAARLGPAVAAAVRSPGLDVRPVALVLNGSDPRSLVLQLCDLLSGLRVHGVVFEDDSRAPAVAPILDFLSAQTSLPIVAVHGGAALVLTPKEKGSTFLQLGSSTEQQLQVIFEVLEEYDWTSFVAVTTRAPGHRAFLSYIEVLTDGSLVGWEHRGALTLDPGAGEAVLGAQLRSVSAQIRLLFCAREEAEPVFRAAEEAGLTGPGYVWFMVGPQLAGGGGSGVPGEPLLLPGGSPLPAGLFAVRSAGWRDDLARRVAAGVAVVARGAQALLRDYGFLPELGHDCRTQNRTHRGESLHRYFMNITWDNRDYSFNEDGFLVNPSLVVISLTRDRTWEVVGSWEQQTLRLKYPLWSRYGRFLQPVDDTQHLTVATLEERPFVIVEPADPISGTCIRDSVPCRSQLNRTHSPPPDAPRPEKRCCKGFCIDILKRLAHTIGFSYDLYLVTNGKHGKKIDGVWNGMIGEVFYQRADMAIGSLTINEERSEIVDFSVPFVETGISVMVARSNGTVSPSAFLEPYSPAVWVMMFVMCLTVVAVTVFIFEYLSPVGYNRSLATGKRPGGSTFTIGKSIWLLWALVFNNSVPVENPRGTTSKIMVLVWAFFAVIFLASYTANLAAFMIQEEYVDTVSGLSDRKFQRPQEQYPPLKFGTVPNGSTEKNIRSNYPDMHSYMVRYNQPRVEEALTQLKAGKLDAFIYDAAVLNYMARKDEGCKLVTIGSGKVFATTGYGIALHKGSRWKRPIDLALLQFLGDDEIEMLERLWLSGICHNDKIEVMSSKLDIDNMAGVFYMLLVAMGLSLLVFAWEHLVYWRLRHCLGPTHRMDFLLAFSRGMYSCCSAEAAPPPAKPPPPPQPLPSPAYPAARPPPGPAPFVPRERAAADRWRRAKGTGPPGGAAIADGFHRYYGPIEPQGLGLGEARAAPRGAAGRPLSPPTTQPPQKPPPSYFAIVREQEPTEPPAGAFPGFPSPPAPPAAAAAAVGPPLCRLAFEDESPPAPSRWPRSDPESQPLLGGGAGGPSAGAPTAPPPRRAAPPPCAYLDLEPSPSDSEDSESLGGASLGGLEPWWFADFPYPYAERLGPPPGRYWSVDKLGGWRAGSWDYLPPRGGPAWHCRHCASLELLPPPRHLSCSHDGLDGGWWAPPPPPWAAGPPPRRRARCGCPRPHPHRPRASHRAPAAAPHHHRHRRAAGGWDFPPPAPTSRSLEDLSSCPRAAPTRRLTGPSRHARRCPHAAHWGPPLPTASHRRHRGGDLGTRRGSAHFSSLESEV
Test Description: Whole-cell voltage-clamp recordings, HEK cells, GluN1/GluN2D (agonist dependence)
Assay type: cell-based
Assay Setup: fifth of 5 brief NMDA (500 μM)/glycine (250 μM) pulses at 1 s intervals; read-out: IC50 pulse 5 (95% CI)
Assay Metric: IC50 (nM)
# number only, unit nM dropped from output

# return recorded IC50 for entry Cc1ccc2[nH]c(=O)c(C3=NN(C(=O)CCC(=O)O)C(c4ccc(Br)cc4)C3)c(-c3ccccc3)c2c1 (centres unmarked) [compound 1, reference compound] 1600

Answer with the recorded IC50 of O=C(O)CC(F)(F)C(=O)N1N=C(c2c(-c3ccc(Cl)cc3)c3ccccc3[nH]c2=O)CC1c1ccc(Cl)cc1 (centres unmarked) [2i] only. 400

====

Test Description: Mouse plasma and brain pharmacokinetics, IP administration
Format: in vivo
Assay Setup: male, C57BL/6, mouse, plasma, intraperitoneal, 10 mg/kg, 10 mg/kg IP; 0.25 hr; read-out: plasma concentration, individual (Group 1-3)
Assay Metric: concentration at 0.25 h (ng/mL)
Enter your answer as a number in ng/mL; do not include the unit.

Give the value of concentration at 0.25 h reported for the following: O=C(O)CC(F)(F)C(=O)N1N=C(c2c(-c3ccc(Cl)cc3)c3ccccc3[nH]c2=O)CC1c1ccc(Cl)cc1 (stereo not shown) 1250

====

Test Description: Mouse plasma and brain pharmacokinetics, IP administration
Assay type: in vivo
Assay Setup: male, C57BL/6, mouse, brain and plasma, ip, 10 mg/kg, 10 mg/kg IP; 2 h; read-out: Brain/plasma Ratio, individual (Group 1-3)
Assay Metric: Kp at 2 h
Give a plain numeric answer without units written out.

Item O=C(O)CC(F)(F)C(=O)N1N=C(c2c(-c3ccc(Cl)cc3)c3ccccc3[nH]c2=O)CC1c1ccc(Cl)cc1 (stereo not shown) : provide Kp at 2 h 0.015

====

Test Description: Liver microsome stability, mouse
Type: in vitro ADME
Assay Setup: CD-1, mouse, mouse liver microsomes
Can you tell me microsomal CLint at 3 μM for the items I'm about to list?
The figure you give is taken to be in µL/min/mg; do not add the unit.

Item CC(C)(C)COC(=O)CC(F)(F)C(=O)N1N=C(c2c(-c3ccc(Cl)cc3)c3ccccc3[nH]c2=O)CC1c1ccc(Cl)cc1 (stereo not drawn) [2o] : provide microsomal CLint at 3 μM 173

Please report the measured microsomal CLint at 3 μM for O=C(CC(F)(F)C(=O)N1N=C(c2c(-c3ccc(Cl)cc3)c3ccccc3[nH]c2=O)CC1c1ccc(Cl)cc1)OCC1CC1 (stereo not drawn) [2n] 385

Give the reported value of microsomal CLint at 3 μM for this record: CC(C)OC(=O)CC(F)(F)C(=O)N1N=C(c2c(-c3ccc(Cl)cc3)c3ccccc3[nH]c2=O)CC1c1ccc(Cl)cc1 (stereo not drawn) [2m] 239

Retrieve microsomal CLint at 3 μM measured for CN(C)C(=O)CC(F)(F)C(=O)N1N=C(c2c(-c3ccc(Cl)cc3)c3ccccc3[nH]c2=O)CC1c1ccc(Cl)cc1 (stereo not drawn) [2r] and print it. 231

Specify reported microsomal CLint at 3 μM for the compound shown: CCOC(=O)CC(F)(F)C(=O)N1N=C(c2c(-c3ccc(Cl)cc3)c3ccccc3[nH]c2=O)CC1c1ccc(Cl)cc1 (stereo not drawn) [2l] 267
